Reported EC50 [µM], FXa generation assay by item:
Molecular target: human Factor IXa (human, UniProt P00740 47-191; P00740 227-461)
Assay: cell-based or functional assay
Square brackets hold non-standard residues; d marks the D form. Primed or numbered codes have the meaning given here. Side chains are listed from the residue outwards. Ends that are not written are not given here. * marks the point of attachment. Biotin = O=C1N[C@H]2[C@H](CS[C@H]2CCCCC(=O)*)N1; NMeL = CN[C@@H](CC(C)C)C(=O)O; PEG12′ = not defined here; PEG2″ = not defined here; Dap = NC[C@H](N)C(=O)O

>  <BINDER>
DAGPNKLRCLASYCQLFGGGHA

>  <EC50 [µM], FXa generation assay>
> 50 µM

$$$$
>  <BINDER>
RRAAGKLQCLASYCWLFWTGIA

>  <EC50 [µM], FXa generation assay>
< 0.5 µM

$$$$
>  <BINDER>
SKQGRPISPD[dR]RAAGKLTCL[dA]SYCWLFWTGIA (not fully specified; printed as SKQGRPISPDrRAAGKLTCLaSYCWLFWTGIA; cysteine pairing not given here) [SKQGRPISPDrRAAGKLTCLaSYCWLFWTGIA]

>  <EC50 [µM], FXa generation assay>
> 10 µM

$$$$
>  <BINDER>
RRAPGKLQCLASYCWLFWTKIA

>  <EC50 [µM], FXa generation assay>
> 1 µM

$$$$
>  <BINDER>
[dK][NMeL]TCLASYCWLF-NH2 (cysteine pairing not given here) [compound 2]

>  <EC50 [µM], FXa generation assay>
< 0.5 µM

$$$$
>  <BINDER>
HMQWGKLPCLASYCWLFWYGIG

>  <EC50 [µM], FXa generation assay>
> 1 µM

$$$$
>  <BINDER>
K[NMeL]TCLASYCWLF (cysteine pairing not given here) [K-MeLeu-TCLASYCWLF]

>  <EC50 [µM], FXa generation assay>
< 0.5 µM

$$$$
>  <BINDER>
CKTYFWK[dP]GNIMVTFC[PEG12′]K([PEG2″-Biotin])[PEG12′][dR]RAPGKLTCLASYCWLFWTGIA (cysteine pairing not given here) [CKTYFWKpGNIMVTFC-PEG12-Lys(PEG2-Biotin)-PEG12-rRAPGKLTCLASYCWLFWTGIA]

>  <EC50 [µM], FXa generation assay>
> 20 µM

$$$$
>  <BINDER>
SRI[dR]TVSPGS[dR]SASGKSTCLASYCWLFWTGIA (not fully specified; printed as SRIrTVSPGSrSASGKSTCLASYCWLFWTGIA; cysteine pairing not given here) [SRIrTVSPGSrSASGKSTCLASYCWLFWTGIA]

>  <EC50 [µM], FXa generation assay>
> 1 µM

$$$$
>  <BINDER>
KLTCLASYAWLF

>  <EC50 [µM], FXa generation assay>
> 1 µM

$$$$
>  <BINDER>
RGRSAKLTCLASYCWLFFGVIL

>  <EC50 [µM], FXa generation assay>
< 0.5 µM

$$$$
>  <BINDER>
KLTCLA[Dap]YCWLF (not fully specified; printed as KLTCLA-Dpr-YCWLF; cysteine pairing not given here) [KLTCLA-Dpr-YCWLF]

>  <EC50 [µM], FXa generation assay>
> 20 µM

$$$$
>  <BINDER>
GSVRRALFVAARAPAKLTCLASYCWLFWTGIA [GSVRRALFVA ARAPA KLTCLASYCWLFWTGIA]

>  <EC50 [µM], FXa generation assay>
< 0.5 µM

$$$$
>  <BINDER>
KLACLASYCWLF

>  <EC50 [µM], FXa generation assay>
< 0.5 µM

$$$$

FYI, the data here is from patent US20140303084A1.
